- Test system: OVCAR-8 ovarian
- Experiment notes: NCI tumour cell line growth inhibition, 48 h; in the data active means GI50 below about 0.43 µM; inactive means the rest
Just give me one of these, please: class 1 (active), class 0 (inactive)

Use the examples below as a reference point.
Compound	Qualitative label
Nc1ccc(C2=CC(c3ccc(Cl)cc3)N3C=CSC3=N2)cc1 (stereo not drawn)	class 0
CC1=C(c2ccccc2)C(O)(c2ccccc2)C(C)C1=O (stereo not drawn)	class 0
Cc1csc2[n+]1-c1ccccc1N(C(=O)Nc1ccccc1)C(C)C2 (stereo not drawn)	class 0

Prompt: What is the recorded call for this compound in the test? COc1cc(/C=N/Nc2ncnc3c2cnn3-c2ccccc2)ccc1O
Completion: class 0

Prompt: What is the recorded call for this compound in the test? COc1ccc(/C(COc2ccc3oc(-c4ccccc4)cc(=O)c3c2)=N\O)cc1
Completion: class 1

Prompt: What is the recorded call for this compound in the test? C=C(NC(=O)C(=C)NC(=O)c1csc(C2=NC3c4csc(n4)C4NC(=O)c5csc(n5)C(C(C)(O)C(C)O)NC(=O)C5CSC(=N5)/C(=C/C)NC(=O)C(C(C)O)NC(=O)c5csc(n5)C3(CC2)NC(=O)C(C)NC(=O)C(=C)NC(=O)C(C)NC(=O)C(C(C)CC)NC2C=Cc3c(C(C)O)cc(nc3C2O)C(=O)OC4C)n1)C(N)=O (stereo not drawn)
Completion: class 0

Prompt: What is the recorded call for this compound in the test? COc1cc(Nc2ncc(-c3ccccc3)o2)cc(OC)c1
Completion: class 0

Prompt: What is the recorded call for this compound in the test? CCN(Cc1ccccc1)C1CCN(Cc2cc(Br)ccc2O)CC1
Completion: class 0
